# Tested on: Human immunodeficiency virus 1
# PROTOCOL: Antiviral activity against X4 tropic HIV1 NL4.3 infected in CD4 and CXCR4 expressing human MT4 cells assessed as inhibition of viral cytopathicity
# Type: functional, organism-based
# EXPERIMENTAL_PARAMETERS: Human immunodeficiency virus 1, NL4.3, MT4
pIC50: −log10 of the molar value.
Quick rule: pIC50 of at least 8 means criterion met, below that means criterion not met.

Task: Form field: pIC50 at least 8? Entry: Cc1cnc(CN(CCCCN)C(C)c2ccccn2)c(C)c1 (racemic)
Output: criterion met

Task: Form field: pIC50 at least 8? Entry: CC(C)c1cccnc1CN(CCCCN)Cc1nc2ccccc2[nH]1
Output: criterion not met

Task: Form field: pIC50 at least 8? Entry: CC(C)C(c1ccccn1)N(CCCCN)Cc1nc2ccccc2[nH]1 (stereo unspecified)
Output: criterion not met

Task: Form field: pIC50 at least 8? Entry: Cc1cnc(CN(CCCCN)C2CCCc3cccnc32)c(C)c1 (racemic)
Output: criterion met

Task: Form field: pIC50 at least 8? Entry: CC(c1ccccn1)N(CCCCN)Cc1ncccc1C(F)(F)F (racemic)
Output: criterion not met

Task: Form field: pIC50 at least 8? Entry: Cc1cccc(CN(CCCCN)[C@H]2CCCc3cccnc32)n1
Output: criterion met

Task: Form field: pIC50 at least 8? Entry: CC(c1ccccn1)N(CCCCN)Cc1ncccc1N (racemic)
Output: criterion not met

Task: Form field: pIC50 at least 8? Entry: Cc1ccnc(CN(CCCCN)C2CCCc3cccnc32)c1 (racemic)
Output: criterion not met

Task: Form field: pIC50 at least 8? Entry: CC(c1ccccn1)N(CCCCN)Cc1nc2ccccc2[nH]1 (stereo unspecified)
Output: criterion not met

New cases:
Task: Form field: pIC50 at least 8? Entry: NCCCCN(Cc1nc2ccccc2[nH]1)Cc1ncccc1O
Output: criterion not met

###

# PROTOCOL: Volume of distribution at steady state in dog at 5 umol/kg, iv
# Type: ADME, organism-based, Canis lupus familiaris
# EXPERIMENTAL_PARAMETERS: in vivo, read-out: Vdss
RECORDED_METRIC: Vd (L/kg)
Answers are plain numbers, in L/kg.

Task: Vd for Cc1cnc(CN(CCCCN)[C@H]2CCCc3cccnc32)c(C)c1 ?
Output: 8.7

###

# PROTOCOL: Cytotoxicity against human MT4 cells expressing CD4 and CXCR4 assessed as cell viability
# Type: cell-based
Record form. Attribute: CC50. Fill in for each entry.
Numbers only, in µM.

Solved cases (5 shown):
Task: CC50 for CC(C)c1cccnc1CN(CCCCN)C1CCCc2cccnc21 (racemic) ?
Output: 33.8

Task: CC50 for NCCCCN(Cc1ncccc1Cl)C1CCCc2cccnc21 (stereo unspecified) ?
Output: 191

Task: CC50 for Cc1cccnc1CN(CCCCN)C(C)c1ccccn1 (stereo unspecified) ?
Output: 45.4

Task: CC50 for Cc1cnc(CN(CCCCN)C2CCCc3cccnc32)c(C)c1 (racemic) ?
Output: 32.6

Task: CC50 for CC(c1ccccn1)N(CCCCN)Cc1ncccc1N (racemic) ?
Output: 167

Moving on to the next compound.
Task: CC50 for Cc1ccnc(CN(CCCCN)C2CCCc3cccnc32)c1 (racemic) ?
Output: 36.9

###

Record form. Attribute: pIC50. Fill in for each entry.
# System: Human immunodeficiency virus 1
# PROTOCOL: Antiviral activity against X4 tropic HIV1 NL4.3 infected in CD4 and CXCR4 expressing human MT4 cells assessed as inhibition of viral cytopathicity
# Type: functional, organism-based
# EXPERIMENTAL_PARAMETERS: Human immunodeficiency virus 1, NL4.3, MT4
Numbers only, as −log10 of the molar value.

Solved cases (5 shown):
Task: pIC50 for Cc1ccnc(C(C)N(CCCCN)Cc2nc3ccccc3[nH]2)c1 (stereo unspecified) ?
Output: 6.36

Task: pIC50 for Cc1cccnc1CN(CCCCN)[C@@H](C)c1ccccn1 ?
Output: 8.96

Task: pIC50 for NCCCCN(Cc1ncccc1N)C1CCCc2cccnc21 (racemic) ?
Output: 7.71

Task: pIC50 for CC(C)(c1ccccn1)N(CCCCN)Cc1nc2ccccc2[nH]1 ?
Output: 5.60

Task: pIC50 for Cc1ccnc(C(C)N(CCCCN)Cc2ncccc2C)c1 (racemic) ?
Output: 9.52

Moving on to the next compound.
Task: pIC50 for CC(c1cccc(N)n1)N(CCCCN)Cc1nc2ccccc2[nH]1 (stereo unspecified) ?
Output: 5.64

###

# PROTOCOL: Cmax in dog
# Type: ADME, organism-based, Canis lupus familiaris
# EXPERIMENTAL_PARAMETERS: in vivo
Record form. Attribute: Cmax. Fill in for each entry.
One number for each entry, in µM.

Solved cases (2 shown):
Task: Cmax for C[C@@H](c1ccccn1)N(CCCCN)Cc1nc2ccccc2[nH]1 ?
Output: 1.33

Task: Cmax for Cc1cnc(CN(CCCCN)[C@H]2CCCc3cccnc32)c(C)c1 ?
Output: 7.16

Need Cmax for each of these compounds.
1. NCCCCN(Cc1ncccc1N)[C@H]1CCCc2cccnc21
2. Cc1cccc(CN(CCCCN)[C@H]2CCCc3cccnc32)n1

Output:
1: 7.74; 2: 2.06

###

# PROTOCOL: AUC (0 to infinity) in dog
# Assay type: ADME, organism-based, Canis lupus familiaris
# Set-up: time infinity; concentration or dose not given beside the values
# EXPERIMENTAL_PARAMETERS: plasma
// classify: if (AUC(0-inf) < 7 µM·h) true else false

Look over these answered cases.
Task: Determine if Cc1cccc(CN(CCCCN)[C@H]2CCCc3cccnc32)n1 shows AUC(0-inf) strictly lower than 7 µM·h.
Output: false

Task: Determine if C[C@@H](c1ccccn1)N(CCCCN)Cc1nc2ccccc2[nH]1 shows AUC(0-inf) strictly lower than 7 µM·h.
Output: true

New cases:
Task: Determine if NCCCCN(Cc1ncccc1N)[C@H]1CCCc2cccnc21 shows AUC(0-inf) strictly lower than 7 µM·h.
Output: false

Task: Determine if Cc1cnc(CN(CCCCN)[C@H]2CCCc3cccnc32)c(C)c1 shows AUC(0-inf) strictly lower than 7 µM·h.
Output: false

Task: Determine if Cc1cccnc1CN(CCCCN)[C@@H](C)c1ccccn1 shows AUC(0-inf) strictly lower than 7 µM·h.
Output: false

###

# PROTOCOL: Oral bioavailability in dog at 12.5 umol/kg
# Format: ADME, organism-based, Canis lupus familiaris
# EXPERIMENTAL_PARAMETERS: in vivo
RECORDED_METRIC: bioavailability (%)
Numbers only, in %.

Task: bioavailability for Cc1cnc(CN(CCCCN)[C@H]2CCCc3cccnc32)c(C)c1 ?
Output: 51

###

# STUDY_TARGET: C-X-C chemokine receptor type 4 (Homo sapiens, UniProt P61073)
# Sequence (P61073 whole entry): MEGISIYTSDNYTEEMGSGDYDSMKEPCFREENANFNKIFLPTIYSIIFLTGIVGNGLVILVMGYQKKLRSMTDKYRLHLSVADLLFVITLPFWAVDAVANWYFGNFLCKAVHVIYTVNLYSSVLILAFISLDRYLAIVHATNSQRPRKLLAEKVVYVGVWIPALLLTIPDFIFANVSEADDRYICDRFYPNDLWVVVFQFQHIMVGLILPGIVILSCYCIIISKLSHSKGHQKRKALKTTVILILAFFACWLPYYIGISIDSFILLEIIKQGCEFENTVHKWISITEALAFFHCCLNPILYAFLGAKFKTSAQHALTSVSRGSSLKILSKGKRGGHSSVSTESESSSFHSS
# PROTOCOL: Antagonist activity at CXCR4 in human CEM-CCRF cells assessed as inhibition of SDF-1-induced calcium signaling
# Assay type: functional, cell-based
Record form. Attribute: pIC50. Fill in for each entry.
Answers are plain numbers, as −log10 of the molar value.

Solved cases (4 shown):
Task: Quick check: pIC50 on C-X-C chemokine receptor type 4 (Homo sapiens, UniProt P61073), item CC(c1ccccn1)N(CCCCN)Cc1ncccc1N (racemic) ?
Output: 7.14

Task: Quick check: pIC50 on C-X-C chemokine receptor type 4 (Homo sapiens, UniProt P61073), item Cc1cnc(CN(CCCCN)C2CCCc3cccnc32)c(C)c1 (racemic) ?
Output: 7.72

Task: Quick check: pIC50 on C-X-C chemokine receptor type 4 (Homo sapiens, UniProt P61073), item Cc1cccc(CN(CCCCN)C(C)c2ccccn2)n1 (racemic) ?
Output: 6.74

Task: Quick check: pIC50 on C-X-C chemokine receptor type 4 (Homo sapiens, UniProt P61073), item Cc1cnc(CN(CCCCN)C(C)c2ccccn2)c(C)c1 (racemic) ?
Output: 7.70

Need pIC50 for each of these molecules.
1. CC(c1ccccn1)N(CCCCN)Cc1ncccc1C(F)(F)F (racemic)
2. Cc1ccc(CN(CCCCN)C2CCCc3cccnc32)nc1 (racemic)

Output:
1. 6.95
2. 7.46

###

# PROTOCOL: Cytotoxicity against human MT4 cells expressing CD4 and CXCR4 assessed as cell viability
# Type: cell-based
RECORDED_METRIC: CC50 (µM)
One number for each entry, in µM.

Task: CC50 for NCCCCN(Cc1cccc(N)n1)C1CCCc2cccnc21 (racemic) ?
Output: 158

Need CC50 for each of these compounds.
1. Cc1cccnc1CN(CCCCN)C1CCCc2cccnc21 (racemic)
2. Cc1cccc(CN(CCCCN)C2CCCc3cccnc32)n1 (racemic)
3. Cc1cc(C)nc(CN(CCCCN)C2CCCc3cccnc32)c1 (racemic)

Output:
[32.4, 299, 149]

###

Record form. Attribute: pIC50. Fill in for each entry.
# System: Human immunodeficiency virus 1
# PROTOCOL: Antiviral activity against X4 tropic HIV1 NL4.3 infected in CD4 and CXCR4 expressing human MT4 cells assessed as inhibition of viral cytopathicity
# Type: functional, organism-based
# EXPERIMENTAL_PARAMETERS: Human immunodeficiency virus 1, NL4.3, MT4
One number for each entry, as −log10 of the molar value.

Solved cases (5 shown):
Task: pIC50 for NCCCCN(Cc1ncccc1N)[C@H]1CCCc2cccnc21 ?
Output: 8.80

Task: pIC50 for Cc1ccc(C(C)N(CCCCN)Cc2nc3ccccc3[nH]2)nc1 (stereo unspecified) ?
Output: 8.42

Task: pIC50 for Cc1cccc(CN(CCCCN)C2CCCc3cccnc32)n1 (racemic) ?
Output: 8.54

Task: pIC50 for NCCCCN(Cc1ccccn1)Cc1nc2ccccc2[nH]1 ?
Output: 7.39

Task: pIC50 for NCCCCN(Cc1nc2ccccc2[nH]1)C(c1ccccc1)c1ccccn1 (stereo unspecified) ?
Output: 4.88

Need pIC50 for each of these compounds.
1. Cc1cccc(CN(CCCCN)C(C)c2ccccn2)n1 (racemic)
2. Cc1cnc(CN(CCCCN)[C@H]2CCCc3cccnc32)c(C)c1

Output:
7.82
8.11

Need pIC50 for each of these compounds.
1. NCCCCN(Cc1ncccc1O)C1CCCc2cccnc21 (racemic)
2. CC(c1ccccn1)N(CCCCN)Cc1ncccc1C(C)(C)C (racemic)
3. NCCCCN(Cc1cccc(N)n1)C1CCCc2cccnc21 (racemic)
4. COCc1cccc(CN(CCCCN)C2CCCc3cccnc32)n1 (racemic)
5. NCCCCN(Cc1ccccn1)C1CCCc2cccnc21 (racemic)
6. Cc1cc(C)nc(CN(CCCCN)C2CCCc3cccnc32)c1 (racemic)

Output:
1. 6.95
2. 8.80
3. 7.52
4. 6.26
5. 7.82
6. 7.77
